Give fold difference in affinity vs original for every item shown.
- TESTED ON: binding partner of C5A (XPA23)
- PROCEDURE DETAILS: Biacore K-off
Value expressed in fold; do not type the unit.

Summary for this binder, C5A (XPA23) VL S50H (antibody, V domains shown) VH: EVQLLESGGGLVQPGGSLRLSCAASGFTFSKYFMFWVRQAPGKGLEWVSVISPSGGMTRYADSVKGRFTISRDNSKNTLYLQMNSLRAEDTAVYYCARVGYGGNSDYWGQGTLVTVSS VL: DIQMTQSPSSVSASVGDRLTIICRASQDINRWLAWYQQTPGNAPKLLIHHATSLQSGVPSRFSGSGSGTDFTLTINSLQPEDFATYYCQQADSFPLTFGGGTKVEIK : fold difference in affinity vs original is 0.05

Reported fold difference in affinity vs original for C5A (XPA23) VL S53E (antibody, V domains shown) VH: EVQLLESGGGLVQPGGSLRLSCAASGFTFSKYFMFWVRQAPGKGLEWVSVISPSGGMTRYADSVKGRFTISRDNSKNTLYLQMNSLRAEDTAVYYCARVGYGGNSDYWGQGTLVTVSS VL: DIQMTQSPSSVSASVGDRLTIICRASQDINRWLAWYQQTPGNAPKLLIHSATELQSGVPSRFSGSGSGTDFTLTINSLQPEDFATYYCQQADSFPLTFGGGTKVEIK was 1.13

For this binder ( C5A (XPA23) VL A51D (antibody, V domains shown) VH: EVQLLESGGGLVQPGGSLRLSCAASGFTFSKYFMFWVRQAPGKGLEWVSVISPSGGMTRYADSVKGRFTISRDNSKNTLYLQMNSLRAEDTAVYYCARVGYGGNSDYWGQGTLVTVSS VL: DIQMTQSPSSVSASVGDRLTIICRASQDINRWLAWYQQTPGNAPKLLIHSDTSLQSGVPSRFSGSGSGTDFTLTINSLQPEDFATYYCQQADSFPLTFGGGTKVEIK ), measured fold difference in affinity vs original is 0.13
